measurement protocol: Solubility of photochromic compound in polymerizable compounds
Format: physicochemical
Parameters: key: 1: No haze is seen when checked under transmission of light, and the sample is completely dissolved.; 2: A very thin haze is seen to the extent that it can be seen under transmission of light.; 3: A thin haze that can be seen under transmission of light is seen.; 4: A haze can be seen even without transmission of light
condition info: 35 µmol/g in radical polymerizable compound composition of Example 21, 65 to 70°C, stirring and ultrasonic irradiation
quantity name: Dissolution for 45 min
Answers are plain numbers.

For orientation, consider the following solved cases.
molecule: CCCCC1(C)c2cc(N(C)c3ccccc3)ccc2-c2c1c1c(c3cc(OC)c(OC)cc23)OC(c2ccc(OC)cc2)(c2ccc(OCCC)cc2)C=C1 (stereo not shown)
measured value: 2
//
molecule: CCCCC1(CCC)c2cc(C)ccc2-c2c1c1c(c3cc(OC)c(-c4ccc(N5CCOCC5)cc4)cc23)OC(c2ccc(OC)cc2)(c2ccc(N3CCOCC3)cc2)C=C1 (stereo not shown)
measured value: 1
//
molecule: CCCCCCC1(CCCC)c2cc(OC)ccc2-c2c1c1c(c3cc(OC)c(Sc4c(C)cccc4C)cc23)OC(c2ccc(OC)cc2)(c2ccc(N3CCOCC3)cc2)C=C1 (stereo not shown)
measured value: 1
//
molecule: CCCCC1(CCC)c2ccccc2-c2c1c1c(c3cc(OC)c(N4CCOCC4)cc23)OC(c2ccc(OC)cc2)(c2ccc(OC)cc2)C=C1 (stereo not shown)
measured value: 1
//
molecule: COc1ccc(C2(c3ccc(OC)cc3)C=Cc3c4c(c5ccc(OC)cc5c3O2)-c2ccc(OC(F)(F)F)cc2C4(C)C)cc1 [Formula (H), reference compound]
measured value: 3

I have 2 molecules here; please give me Dissolution for 45 min for each one.
1. CCC(C)C1(CC)c2cc(OC)ccc2-c2c1c1c(c3cc(OC)ccc23)OC(c2ccc(OC)cc2)(c2ccc(N3CCOCC3)cc2)C=C1 (stereo not shown)
2. CCCOc1ccc(C2(c3ccc(OC)cc3)C=Cc3c4c(c5cc(OC)c(OC)cc5c3O2)-c2ccc(N(C)c3ccccc3)cc2C4(CC)CCC)cc1 (stereo not shown)

Result string:
1
1

All values here come from patent EP4763837A1.
